target: hBMPR1B (Homo sapiens)
Sequence (O00238 14-502): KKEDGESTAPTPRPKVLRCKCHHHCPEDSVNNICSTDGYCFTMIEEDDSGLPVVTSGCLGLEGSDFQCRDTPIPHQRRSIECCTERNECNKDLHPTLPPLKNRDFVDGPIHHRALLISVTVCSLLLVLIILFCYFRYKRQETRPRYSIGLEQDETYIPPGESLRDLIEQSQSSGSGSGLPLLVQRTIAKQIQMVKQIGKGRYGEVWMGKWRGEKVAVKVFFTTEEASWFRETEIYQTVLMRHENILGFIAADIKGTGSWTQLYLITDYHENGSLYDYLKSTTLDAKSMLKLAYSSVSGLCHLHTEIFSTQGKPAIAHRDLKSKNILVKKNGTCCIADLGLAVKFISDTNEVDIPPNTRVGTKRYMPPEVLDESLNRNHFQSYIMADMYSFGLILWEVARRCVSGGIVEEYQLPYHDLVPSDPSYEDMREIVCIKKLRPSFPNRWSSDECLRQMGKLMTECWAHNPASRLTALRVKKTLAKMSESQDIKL
value kind: IC50

Need IC50 of Cc1cn(CCN2CCN(c3ccccc3-c3cc(C#N)cc(C(=O)NCCCN4CCCC4)c3)CC2)c2ccccc12 , thanks. > 20 µM

---

biological target: hMINK (Homo sapiens, UniProt Q8N4C8)
Sequence (Q8N4C8 whole entry): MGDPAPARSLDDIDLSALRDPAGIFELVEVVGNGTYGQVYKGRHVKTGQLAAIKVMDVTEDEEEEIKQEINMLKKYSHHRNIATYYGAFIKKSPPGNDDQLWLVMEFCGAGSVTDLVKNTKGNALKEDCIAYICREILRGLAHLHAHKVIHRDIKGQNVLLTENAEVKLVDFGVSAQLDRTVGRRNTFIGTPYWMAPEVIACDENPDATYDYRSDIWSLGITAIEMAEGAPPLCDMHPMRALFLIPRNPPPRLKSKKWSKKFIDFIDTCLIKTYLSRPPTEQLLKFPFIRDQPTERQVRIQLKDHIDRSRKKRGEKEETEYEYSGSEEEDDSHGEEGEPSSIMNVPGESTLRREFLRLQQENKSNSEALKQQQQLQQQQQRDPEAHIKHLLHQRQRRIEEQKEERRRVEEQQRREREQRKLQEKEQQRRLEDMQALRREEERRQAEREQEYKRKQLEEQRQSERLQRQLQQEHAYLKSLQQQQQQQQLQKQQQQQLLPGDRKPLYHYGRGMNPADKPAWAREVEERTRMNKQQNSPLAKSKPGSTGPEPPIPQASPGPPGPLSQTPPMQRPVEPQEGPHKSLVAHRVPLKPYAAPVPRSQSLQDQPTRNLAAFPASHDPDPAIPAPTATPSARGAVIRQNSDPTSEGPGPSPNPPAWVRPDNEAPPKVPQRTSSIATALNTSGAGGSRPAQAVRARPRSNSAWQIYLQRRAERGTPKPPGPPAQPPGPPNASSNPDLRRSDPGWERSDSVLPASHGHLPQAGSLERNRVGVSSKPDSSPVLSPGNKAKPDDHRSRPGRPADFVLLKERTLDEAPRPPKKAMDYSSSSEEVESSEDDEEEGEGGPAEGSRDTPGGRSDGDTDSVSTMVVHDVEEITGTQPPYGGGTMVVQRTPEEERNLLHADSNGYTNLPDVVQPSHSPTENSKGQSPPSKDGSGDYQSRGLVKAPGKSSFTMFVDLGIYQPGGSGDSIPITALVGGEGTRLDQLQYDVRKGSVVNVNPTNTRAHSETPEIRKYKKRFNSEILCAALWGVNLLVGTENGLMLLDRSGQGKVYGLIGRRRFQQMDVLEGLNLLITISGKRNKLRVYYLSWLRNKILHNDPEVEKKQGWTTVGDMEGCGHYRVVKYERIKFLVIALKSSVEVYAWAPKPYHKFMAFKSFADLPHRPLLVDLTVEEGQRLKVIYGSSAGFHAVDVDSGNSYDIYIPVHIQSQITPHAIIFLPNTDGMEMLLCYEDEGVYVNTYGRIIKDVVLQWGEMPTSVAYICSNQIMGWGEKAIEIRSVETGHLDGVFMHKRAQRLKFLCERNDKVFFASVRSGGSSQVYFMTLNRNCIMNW
pIC50: −log10 of the molar value.
value kind: pIC50

So what does the record say about pIC50 for Cc1cn(CCN2CCN(c3ccccc3-c3cc(C#N)cc(C(=O)NCCCN4CCCC4)c3)CC2)c2ccccc12 ? < 4.70

---

Target sequence: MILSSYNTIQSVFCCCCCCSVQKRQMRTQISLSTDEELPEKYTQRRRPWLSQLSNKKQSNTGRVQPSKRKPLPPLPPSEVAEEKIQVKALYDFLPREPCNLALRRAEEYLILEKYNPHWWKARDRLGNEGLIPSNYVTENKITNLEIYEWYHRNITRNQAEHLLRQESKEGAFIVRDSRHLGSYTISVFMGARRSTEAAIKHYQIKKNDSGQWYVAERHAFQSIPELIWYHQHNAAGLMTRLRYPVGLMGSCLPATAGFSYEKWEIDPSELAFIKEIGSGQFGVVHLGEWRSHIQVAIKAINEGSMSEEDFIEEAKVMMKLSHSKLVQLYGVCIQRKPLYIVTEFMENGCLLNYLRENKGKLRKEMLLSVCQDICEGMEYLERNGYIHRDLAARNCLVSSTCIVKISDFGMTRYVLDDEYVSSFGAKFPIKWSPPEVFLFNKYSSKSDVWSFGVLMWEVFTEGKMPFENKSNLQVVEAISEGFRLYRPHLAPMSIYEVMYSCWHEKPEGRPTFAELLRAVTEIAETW
value kind: IC50

Please look up its IC50: Cc1cn(CCN2CCN(c3ccccc3-c3cc(C#N)cc(C(=O)NCCCN4CCCC4)c3)CC2)c2ccccc12 [LLY-507] > 20 µM

---

target: hERK3 (Homo sapiens)
Sequence (Q16659 whole entry): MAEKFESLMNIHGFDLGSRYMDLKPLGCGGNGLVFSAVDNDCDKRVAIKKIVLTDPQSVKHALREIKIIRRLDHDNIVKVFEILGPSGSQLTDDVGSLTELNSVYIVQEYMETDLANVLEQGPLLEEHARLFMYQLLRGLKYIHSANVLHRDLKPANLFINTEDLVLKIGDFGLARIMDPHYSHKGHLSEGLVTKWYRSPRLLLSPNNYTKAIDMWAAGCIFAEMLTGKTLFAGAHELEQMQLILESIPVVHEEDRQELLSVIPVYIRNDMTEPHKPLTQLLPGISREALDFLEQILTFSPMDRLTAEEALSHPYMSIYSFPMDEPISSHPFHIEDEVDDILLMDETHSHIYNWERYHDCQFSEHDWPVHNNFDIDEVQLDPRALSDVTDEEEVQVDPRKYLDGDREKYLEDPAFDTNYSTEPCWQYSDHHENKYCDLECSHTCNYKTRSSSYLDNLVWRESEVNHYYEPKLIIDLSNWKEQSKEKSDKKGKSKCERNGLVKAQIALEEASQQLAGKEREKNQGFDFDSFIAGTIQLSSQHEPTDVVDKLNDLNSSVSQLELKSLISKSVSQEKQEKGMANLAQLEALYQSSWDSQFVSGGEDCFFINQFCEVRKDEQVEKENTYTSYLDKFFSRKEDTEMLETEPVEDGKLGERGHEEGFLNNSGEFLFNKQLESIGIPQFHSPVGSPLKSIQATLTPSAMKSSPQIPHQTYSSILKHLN
value kind: IC50

For the molecule shown here, Cc1cn(CCN2CCN(c3ccccc3-c3cc(C#N)cc(C(=O)NCCCN4CCCC4)c3)CC2)c2ccccc12 , give the reported IC50. > 20 µM

---

target: hRPS6KA5(Kin.Dom.1-N-term) (Homo sapiens)
Sequence (O75582 49-318 limits assumed): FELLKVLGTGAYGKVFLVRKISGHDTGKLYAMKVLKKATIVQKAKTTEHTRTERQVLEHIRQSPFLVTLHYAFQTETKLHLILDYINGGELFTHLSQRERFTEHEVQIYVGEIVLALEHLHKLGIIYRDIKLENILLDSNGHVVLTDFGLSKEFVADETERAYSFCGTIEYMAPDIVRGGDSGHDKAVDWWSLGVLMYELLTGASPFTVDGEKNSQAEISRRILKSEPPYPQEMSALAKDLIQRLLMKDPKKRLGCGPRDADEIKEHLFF
value kind: IC50

Entry under review: Cc1cn(CCN2CCN(c3ccccc3-c3cc(C#N)cc(C(=O)NCCCN4CCCC4)c3)CC2)c2ccccc12 [LLY-507] . Reported IC50? > 20 µM

---

target: hLRRK2 (Homo sapiens, UniProt Q5S007); construct: purchased DiscoverX (KINOMEscan platform); test: KINOMEscan; assay type: binding
value kind: IC50

Return reported IC50; argument: Cc1cn(CCN2CCN(c3ccccc3-c3cc(C#N)cc(C(=O)NCCCN4CCCC4)c3)CC2)c2ccccc12 [LLY-507] > 20 µM

---

target: UniProt P52333
Sequence (P52333 822-1111 limits assumed): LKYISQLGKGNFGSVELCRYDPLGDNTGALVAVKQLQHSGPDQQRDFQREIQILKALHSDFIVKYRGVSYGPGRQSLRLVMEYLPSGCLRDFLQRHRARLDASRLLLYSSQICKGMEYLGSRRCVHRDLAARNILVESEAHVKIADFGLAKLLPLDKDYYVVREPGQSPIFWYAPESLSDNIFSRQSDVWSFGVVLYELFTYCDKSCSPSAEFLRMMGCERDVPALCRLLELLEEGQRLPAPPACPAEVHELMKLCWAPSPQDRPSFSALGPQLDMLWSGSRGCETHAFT
pIC50: −log10 of the molar value.
value kind: pIC50

Name the reported pIC50 value associated with the compound Cc1cn(CCN2CCN(c3ccccc3-c3cc(C#N)cc(C(=O)NCCCN4CCCC4)c3)CC2)c2ccccc12 < 4.70

---

biological target: hDLK (Homo sapiens, UniProt Q12852); construct: purchased DiscoverX (KINOMEscan platform); test: KINOMEscan; format: binding
Sequence (Q12852 whole entry): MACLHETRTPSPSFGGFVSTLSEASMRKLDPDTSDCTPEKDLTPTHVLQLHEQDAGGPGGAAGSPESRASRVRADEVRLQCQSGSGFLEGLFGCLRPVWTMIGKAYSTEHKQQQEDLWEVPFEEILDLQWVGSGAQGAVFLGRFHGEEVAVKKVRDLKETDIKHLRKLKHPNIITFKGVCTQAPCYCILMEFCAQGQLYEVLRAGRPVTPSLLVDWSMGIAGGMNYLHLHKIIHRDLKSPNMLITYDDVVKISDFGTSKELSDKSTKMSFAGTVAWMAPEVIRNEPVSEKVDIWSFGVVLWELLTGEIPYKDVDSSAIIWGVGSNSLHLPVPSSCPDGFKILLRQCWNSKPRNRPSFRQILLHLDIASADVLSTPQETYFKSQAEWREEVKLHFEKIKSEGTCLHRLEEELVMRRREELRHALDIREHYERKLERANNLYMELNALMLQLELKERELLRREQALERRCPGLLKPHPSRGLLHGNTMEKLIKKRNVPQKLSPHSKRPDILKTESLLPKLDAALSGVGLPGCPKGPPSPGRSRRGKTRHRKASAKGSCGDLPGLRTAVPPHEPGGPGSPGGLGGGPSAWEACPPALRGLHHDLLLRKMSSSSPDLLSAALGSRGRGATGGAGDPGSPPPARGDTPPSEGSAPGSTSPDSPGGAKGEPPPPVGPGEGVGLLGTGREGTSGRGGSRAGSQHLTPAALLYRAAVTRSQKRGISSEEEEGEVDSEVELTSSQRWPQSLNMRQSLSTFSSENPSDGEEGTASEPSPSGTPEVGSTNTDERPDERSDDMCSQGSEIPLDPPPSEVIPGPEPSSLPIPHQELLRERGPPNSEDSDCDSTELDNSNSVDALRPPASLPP
value kind: IC50

Fill in the blank: the reported IC50 of Cc1cn(CCN2CCN(c3ccccc3-c3cc(C#N)cc(C(=O)NCCCN4CCCC4)c3)CC2)c2ccccc12 is ____. > 20 µM
